target: p38/MK2 protein–protein interaction (VF-p38α / GST-MK2) (Homo sapiens); assay: primary screen, percent of control activity; higher = less effect of the substance; set-up: species or system HEK293T cell lysate transfected with VF-p38α and GST-MK2; unclear (methods say 'quintuplet replicates')
Sequence (Q16539 2-360 limits assumed): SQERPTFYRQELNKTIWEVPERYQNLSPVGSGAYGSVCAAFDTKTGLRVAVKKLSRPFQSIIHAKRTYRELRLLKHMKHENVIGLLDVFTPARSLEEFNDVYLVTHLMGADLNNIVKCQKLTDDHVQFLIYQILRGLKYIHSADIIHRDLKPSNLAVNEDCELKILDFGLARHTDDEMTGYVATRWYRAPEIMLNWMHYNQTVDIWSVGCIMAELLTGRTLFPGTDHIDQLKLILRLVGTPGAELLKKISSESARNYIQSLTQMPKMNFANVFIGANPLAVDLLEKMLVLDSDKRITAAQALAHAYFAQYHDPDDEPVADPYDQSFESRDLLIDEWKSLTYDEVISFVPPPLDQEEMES
The campaign covered roughly 1,900 compounds. About 50 (3%) showed an effect of 50% or more. The sample as a whole holds a higher share of strong results than the screen did.
Property name: Pct of control (%)
Give the value in % but do not write % after it.

Request: Pct of control of "CC[C@@H]([C@H](C)O)n1ncn(-c2ccc(N3CCN(c4ccc(OC[C@@H]5CO[C@@](Cn6cncn6)(c6ccc(F)cc6F)C5)cc4)CC3)cc2)c1=O" on p38/MK2 protein–protein interaction (VF-p38α / GST-MK2) (Homo sapiens)?
Result: 97

Request: Try this compound next: "CS(=O)(=O)CCNCc1ccc(-c2ccc3ncnc(Nc4ccc(OCc5cccc(F)c5)c(Cl)c4)c3c2)o1"
Result: 88.1

Request: Try this compound next: "CC(=O)O.Cc1cc2c(C(C)C)c(O)c(O)c(C=O)c2c(O)c1-c1c(C)cc2c(C(C)C)c(O)c(O)c(C=O)c2c1O"
Result: 29.9

Request: Try this compound next: "CCOc1nc2cccc(C(=O)O)c2n1Cc1ccc(-c2ccccc2-c2nc(=O)o[nH]2)cc1"
Result: 94.5

Request: Try this compound next: CCCCCC=CCC=CCCCCCCCC(=O)OC(COC(=O)CCCCCCCCCCCCCCC)COP(=O)([O-])OCC[N+](C)(C)C (stereo not shown)
Result: 95.3

Request: Try this compound next: "Cc1ccccc1-n1c(Cn2ncc3c(N)ncnc32)nc2cccc(C)c2c1=O"
Result: 93.1

Request: Try this compound next: "O=C1c2c(O)cc(O)cc2O[C@H](c2cc(O)c(O)c(O)c2)[C@H]1O"
Result: 71.3

Request: Try this compound next: CCOc1ccccc1-n1c(C(C)N2CCN(C(=O)COc3ccc(Cl)cc3)CC2)nc2ccccc2c1=O (stereo not shown)
Result: 100

Request: Try this compound next: "C=C(c1ccc(C(=O)O)cc1)c1cc2c(cc1C)C(C)(C)CCC2(C)C"
Result: 25.7

Request: Try this compound next: CN(C)CCC(c1ccc(Cl)cc1)c1ccccn1.O=C(O)C=CC(=O)O (stereo not shown)
Result: 93.2

Request: Try this compound next: "CN(C)CCc1ccc(O)cc1"
Result: 89.6

Request: Try this compound next: "N#Cc1c(O)c2c(-c3ccc(-c4ccccc4O)cc3)csc2[nH]c1=O"
Result: 94.7

Request: Try this compound next: "Cc1ccc(Cl)cc1N(CC(=O)Nc1c(F)cccc1F)S(C)(=O)=O"
Result: 91.8

Request: Try this compound next: CCCCCCCCCCCCCCCC(=O)OCC(O)C1OC(=O)C(O)=C1O (stereo not shown)
Result: 33.2

Request: Try this compound next: "Nc1ccc(-c2ccc3ncc4ccc(=O)n(-c5cccc(C(F)(F)F)c5)c4c3c2)cn1"
Result: 87.9

Request: Try this compound next: O=C(O)CCC1CCC(c2cc(F)ccc2F)(S(=O)(=O)c2ccc(Cl)cc2)CC1 (stereo not shown)
Result: 85.6

Request: Try this compound next: COc1ccc(CCC(=O)c2c(O)cc(OC3OC(CO)C(O)C(O)C3OC3OC(C)C(O)C(O)C3O)cc2O)cc1O (stereo not shown)
Result: 94.3

Request: Try this compound next: "CN1CCC(OC(c2ccccc2)c2ccccc2)CC1.Cl"
Result: 89.1

Request: Try this compound next: "CC1(C)CCC(C)(C)c2cc(NC(=O)c3ccc(C(=O)O)cc3)ccc21"
Result: 92.2

Request: Try this compound next: "Cc1cccc(N(C)C(=S)Oc2ccc3ccccc3c2)c1"
Result: 101

Request: Try this compound next: "CC1(COc2ccc3c(c2)ncn3-c2ccc3cccc(N4CCC(N)CC4)c3n2)COC1"
Result: 47.3

Request: Try this compound next: "Cc1ccc(CNc2ncnc3ccc(-c4ccc(CO)o4)cc23)o1"
Result: 69.2

Request: Try this compound next: "O=C1O[C@H]([C@@H](O)CO)C(O)=C1O"
Result: 100

Request: Try this compound next: COc1ccc(C2CC(=O)c3c(O)cc(O)cc3O2)cc1O (stereo not shown)
Result: 90.9

Request: Try this compound next: "CCn1cc(C(=O)O)c(=O)c2ccc(C)nc21"
Result: 103

Request: Try this compound next: "CCOc1nc2cccc(C(=O)O)c2n1Cc1ccc(-c2ccccc2-c2nn[nH]n2)cc1"
Result: 95

Request: Try this compound next: CC(C)Cc1ccc(C(C)C(=O)O)cc1 (stereo not shown)
Result: 93

Request: Try this compound next: O=C(OC1Cc2c(O)cc(O)cc2OC1c1cc(O)c(O)c(O)c1)c1cc(O)c(O)c(O)c1 (single isomer, unassigned; (-))
Result: 32.5

Request: Try this compound next: "CC(=Cc1ccc(C(=O)O)cc1)c1ccc2c(c1)C(C)(C)CCC2(C)C"
Result: 78.8

Request: Try this compound next: CCCNC(C)C(=O)Nc1c(C)csc1C(=O)OC.Cl (stereo not shown)
Result: 99.8

Request: Try this compound next: "CN1CCN(c2nc(C3=C(c4c[nH]c5ccccc45)C(=O)NC3=O)c3ccccc3n2)CC1"
Result: 109

Request: Try this compound next: c1ccc(Cn2c(-c3ccc(OCC(C4CCNCC4)n4c(-c5ccccc5)nc5ccccc54)cc3)nc3ccccc32)cc1 (stereo not shown)
Result: 21.2

Request: Try this compound next: O=C(O)CC1CC(c2ccccc2)=NO1 (stereo not shown)
Result: 86.5

Request: Try this compound next: "CN(c1ncccc1CNc1nc(Nc2ccc3c(c2)CC(=O)N3)ncc1C(F)(F)F)S(C)(=O)=O.Cl"
Result: 76.7

Request: Try this compound next: "Cl.O=S(=O)(c1cccc2cnccc12)N1CCCNCC1"
Result: 93.6

Request: Try this compound next: CNCC(O)c1ccc(O)c(O)c1.O=C(O)C(O)C(O)C(=O)O (stereo not shown)
Result: 92.6

Request: Try this compound next: "Cc1cc(O)c2c(c1)C(=O)c1cccc(O)c1C2=O"
Result: 94

====

Kindly state Pct of control for each of the entries shown.
target: p38/MK2 protein–protein interaction (VF-p38α / GST-MK2) (Homo sapiens); experiment: primary screen, percent of control activity; higher = less effect of the substance; parameters: species or system HEK293T cell lysate transfected with VF-p38α and GST-MK2; unclear (methods say 'quintuplet replicates')
The whole screen tested about 1,900 compounds, of which about 50 (3%) showed an effect of 50% or more. This excerpt belongs to a sample that is enriched for strong results.
Give the value in % but do not write % after it.

Request: Pct of control for "O=C(Oc1ccc([N+](=O)[O-])cc1)N1CCC(C(O)(c2ccc3c(c2)OCO3)c2ccc3c(c2)OCO3)CC1" ?
Result: 94.2

Request: Try this molecule next: "O=c1c(O)c(-c2ccc(O)c(O)c2)oc2cc(O)cc(O)c12"
Result: 68

Request: Try this molecule next: "O=c1c(O)c(-c2ccc(O)cc2)oc2cc(O)cc(O)c12"
Result: 75.1

Request: Try this molecule next: CC1OC(Oc2c(-c3cc(O)c(O)c(O)c3)oc3cc(O)cc(O)c3c2=O)C(O)C(O)C1O (stereo not shown)
Result: 74

Request: Try this molecule next: "CC(=CC(=O)Nc1ccccc1C(=O)O)c1ccc2ccccc2c1"
Result: 105

Request: Try this molecule next: CC(COc1ccccc1)N(CCCl)Cc1ccccc1.Cl (stereo not shown)
Result: 85.4

Request: Try this molecule next: "COCCOc1ccc2c(c1)ncn2-c1ccc2cccc(N3CCC(N)CC3)c2n1"
Result: 51.7

Request: Try this molecule next: "CS(=O)(=O)N1CCc2c(-c3cnc(N)nc3)nc(N3CCOCC3)nc21"
Result: 81.8

Request: Try this molecule next: "O=[N+]([O-])C=Cc1ccc2c(c1)OCO2"
Result: 40.3

Request: Try this molecule next: "O=C(/C=C/C=C/c1ccc2c(c1)OCO2)N1CCCCC1"
Result: 82.5

# credit: paper PMC12751014
